- Test system: cholesterol biosynthesis
- Method Notes: inhibition of cholesterol biosynthesis by incorporation of 14C-acetate into cholesterol in HEP G2 cell cultures
- Assay type: cell-based
- Study Conditions: Homo sapiens, HepG2; HEP G2 cells; mean figure, varies somewhat from cell culture to cell culture
Reported Metric: IC50 (nM)
Express the result in nM but write the number alone.

Ask: Need IC50, item CC[C@H](C)C(=O)O[C@H]1C[C@@H](C)C=C2C=C[C@H](C)[C@H](CC[C@@H](O)C[C@@H](O)CC(=O)O)[C@H]21 [mevinolin sodium, reference compound]
Reply: 50

---

- Tested System: HMG--CoA reductase (Rattus norvegicus, UniProt P51639)
- Sequence (P51639 1-887): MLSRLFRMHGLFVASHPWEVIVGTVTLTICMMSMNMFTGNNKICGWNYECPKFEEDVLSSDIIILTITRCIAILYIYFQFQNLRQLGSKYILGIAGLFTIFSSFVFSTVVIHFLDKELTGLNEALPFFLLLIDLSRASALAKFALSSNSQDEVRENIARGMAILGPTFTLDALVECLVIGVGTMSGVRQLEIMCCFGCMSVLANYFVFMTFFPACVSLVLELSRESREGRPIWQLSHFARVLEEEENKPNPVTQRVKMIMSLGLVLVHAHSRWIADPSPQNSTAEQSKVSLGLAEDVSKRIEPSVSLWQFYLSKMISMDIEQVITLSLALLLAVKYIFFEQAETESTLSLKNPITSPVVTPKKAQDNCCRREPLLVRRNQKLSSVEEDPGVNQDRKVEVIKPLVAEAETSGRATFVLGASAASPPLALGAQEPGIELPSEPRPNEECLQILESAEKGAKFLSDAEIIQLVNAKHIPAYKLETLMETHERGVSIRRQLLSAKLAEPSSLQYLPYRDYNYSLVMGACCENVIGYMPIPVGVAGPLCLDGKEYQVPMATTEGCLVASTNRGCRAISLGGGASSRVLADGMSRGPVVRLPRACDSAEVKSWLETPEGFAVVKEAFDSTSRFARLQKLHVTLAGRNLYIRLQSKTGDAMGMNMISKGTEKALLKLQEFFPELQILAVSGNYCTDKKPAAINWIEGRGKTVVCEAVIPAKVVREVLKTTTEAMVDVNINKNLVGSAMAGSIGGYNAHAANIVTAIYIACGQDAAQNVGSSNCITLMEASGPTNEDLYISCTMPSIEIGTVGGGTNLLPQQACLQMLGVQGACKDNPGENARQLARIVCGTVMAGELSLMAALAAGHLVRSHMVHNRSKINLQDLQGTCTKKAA
Entries whose IC50 is below 9 nM take 1 (yes); entries at or above 9 nM take 0 (no).

CC(C)c1c(CC[C@@H](O)C[C@@H](O)CC(=O)[O-])c(-c2ccc(F)cc2)cn1-c1ccccc1.[Na+] (racemic) [Example 14]    1 (yes)
COC(=O)C[C@H](O)C[C@H](O)CCc1c(-c2ccc(F)cc2)cn(C(C)C)c1C (racemic) [Example 17]    0 (no)

Ask: Does the reported IC50 of COC(=O)C[C@H](O)C[C@H](O)/C=C/c1c(-c2ccc(F)cc2)c(C)n(-c2ccccc2)c1C(C)C (relative stereo) [Example 5] stay below 9 nM?
Reply: 1 (yes)

Ask: Cc1c(-c2ccc(F)cc2)c(CC[C@@H](O)C[C@@H](O)CC(=O)O)c(C(C)C)n1-c1ccccc1 (racemic) [Example 8] ?
Reply: 1 (yes)

Ask: Also Cc1c(CC[C@@H](O)C[C@@H](O)CC(=O)O)c(-c2ccc(F)cc2)cn1C(C)C (racemic) [Example 18] , if possible.
Reply: 0 (no)

Ask: What about COC(=O)C[C@H](O)C[C@H](O)/C=C/c1c(-c2ccc(F)cc2)cn(-c2ccccc2)c1C (relative stereo) [Example 9] ?
Reply: 0 (no)

Ask: Next: Cc1c(CC[C@@H](O)C[C@@H](O)CC(=O)[O-])c(-c2ccc(F)cc2)c(C)n1-c1ccccc1.[Na+] (racemic) [Example 4]
Reply: 1 (yes)
